# Tested on: DeltatarO mutant
# Experiment Description: S. aureus survival, RN4220 and DeltatarO strains – OD600, teichoic acid synthesis inhibitors, primary screen (AID 463173)
# Applied Conditions: S. aureus RN4220 wild type/DeltatarO growth, OD600, 18 h, screened at 18.75 µg/mL (by protocol)
About 4,300 (8.3%) of roughly 52,000 compounds were called active. Cut-off read from the data, not from the text of the source: active = survival mostly below about 52% (no sharp cut-off); inactive = mostly above about 56%. What follows is part of a selection rich in actives, with near analogues and random picks from the rest.
Bench note: report the call from active, inactive

# example entries with known answers
Compound	System Under Test	Class
CCN(CC)c1ccc(NC(=O)CCS(=O)(=O)c2cccc3nsnc23)c(C)c1	DeltatarO mutant	active
CCC(Cn1nnc2ccccc2c1=O)NC(=O)Nc1ccc(C)cc1 (stereo unspecified)	DeltatarO mutant	inactive
Cc1ccc(NC(=O)CCS(=O)(=O)c2cccc3nsnc23)c(C)c1	DeltatarO mutant	inactive
COc1cc(-c2nc3cccc(C)n3c2Nc2ccc3c(c2)OCCO3)ccc1O	DeltatarO mutant	inactive
CCC(Cn1nnc2ccccc2c1=O)NC(=O)Nc1ccccc1Cl (stereo unspecified)	DeltatarO mutant	inactive
Cc1cccc2c1-c1sc(C(=O)NCc3ccccc3Cl)cc1CO2	DeltatarO mutant	inactive

Q. Call for entry CCN1CCCC1CNCC(=O)NC1(C)C2CCC(C2)C1(C)C (stereo unspecified) :
A. inactive

Q. What outcome does the record of this test show for CCCN(CCC)S(=O)(=O)c1ccc(C)cc1 ?
A. inactive

Q. Query: recorded result category for O=C(Cc1ccccc1)Nc1c(C(=O)N2CCN(c3ccc(F)cc3)CC2)oc2ccccc12 in this test
A. inactive

Q. Each compound tested received a call. Report the one for CCNc1sc(S(C)(=O)=O)nc1S(=O)(=O)c1ccc(C)cc1 .
A. inactive

Q. Could you please tell me the result logged for CCC(=O)N1c2ccccc2CC1C(=O)NCCc1cc(OC)c(OC)c(OC)c1 (stereo unspecified) in this assay?
A. inactive

Q. Record request — test call for CCC(=O)Nc1ccccc1-c1nc2ccccc2n(C(C)C(=O)Nc2ccc(OC)cc2)c1=O (stereo unspecified)
A. inactive

Q. Just curious, what result did CC(=O)Nc1ccccc1-c1nc2ccccc2n(C(C)C(=O)Nc2cccc(C)c2C)c1=O (stereo unspecified) get here?
A. inactive

Q. Query: recorded result category for CCC(=O)Nc1ccccc1-c1nc2ccccc2n(C(CC)C(=O)Nc2cccc(C(C)=O)c2)c1=O (stereo unspecified) in this test
A. inactive

Q. What was the test verdict on CC(=O)Nc1ccc(NC(=O)CCc2c(C)nc3c(c(C)nn3-c3ccc(C)cc3)c2C)cc1 ?
A. inactive

Q. Identify the outcome logged in this assay for the compound shown: O=C(Nc1cccc(F)c1)C1CCN(S(=O)(=O)c2cccc3nsnc23)CC1
A. inactive

====

# System: DeltatarO mutant
# Experiment Description: S. aureus survival, RN4220 and DeltatarO strains – OD600, teichoic acid synthesis inhibitors, primary screen (AID 463173)
# Applied Conditions: S. aureus RN4220 wild type/DeltatarO growth, OD600, 18 h, active compounds read low, screened at 18.75 µg/mL (by protocol)
About 4,300 (8.3%) of roughly 52,000 compounds were called active. This excerpt belongs to a sample that is enriched for actives.
Test Readout: survival

Please review the following examples before continuing.
Compound	survival
COc1cccc(NC(=O)Cn2nnc(C(=O)NCCc3ccccc3)c2N)c1	144% (inactive)
CC(CNC(=O)CN1C(=O)c2cccnc2Oc2ccc(Cl)cc21)c1ccccc1 (configuration not stated)	90% (inactive)

Q. Item COc1ccc(CCNC(=O)C2CCCN(c3nc4c(C)cc(C)cc4s3)C2)cc1OC (configuration not stated) has what recorded survival?
A. 81% (inactive)

Q. May I ask what survival has been recorded for COc1ccc(-n2c3c(cc(-c4nc(-c5ccc(C)cc5)cs4)c2=O)C(=O)CC(C)(C)C3)cc1 ?
A. 54% (inactive)

Q. survival for CCn1ccc2c(OCC(=O)Nc3ccc(OC)cc3OC)cccc2c1=O ?
A. 20% (active)

Q. Fill in: survival of CCCCn1cnc2cc(NC(=O)c3cc(OC)c(OC)c(OC)c3)ccc21 is ___
A. 66% (inactive)

Q. Look up survival for this compound: Cc1ccc(-c2cc3c(n2-c2ccccc2F)CC(C)(C)CC3=O)cc1
A. 101% (inactive)

Q. Can you look up the measured survival of CCn1ccc2c(OCC(=O)Nc3ccc(C(C)=O)cc3)cccc2c1=O for me?
A. 66% (inactive)

Q. So what's the measured survival for this one? Cc1ccc(NC(=O)CCNS(=O)(=O)c2ccc3c(c2)CCN3C(=O)C2CC2)c(Cl)c1
A. 83% (inactive)

====

# Tested on: DeltatarO mutant
# Experiment Description: S. aureus survival, RN4220 and DeltatarO strains – OD600, teichoic acid synthesis inhibitors, primary screen (AID 463173)
# Applied Conditions: S. aureus RN4220 wild type/DeltatarO growth, OD600, 18 h, screened at 18.75 µg/mL (by protocol)
Screen size: about 52,000 compounds; about 4,300 (8.3%) were called active. No stated cut-off is given here; in the data, active means survival mostly below about 52% (no sharp cut-off); inactive means mostly above about 56%. The sample holds actives, similar compounds and a random draw of the others, so the mix is not that of the screen.
Pick one: active, inactive

Chemical Structure	Class
COc1ccc(-n2cc(C(=O)NCCc3cc(OC)ccc3OC)c3ccccc3c2=O)cc1	active
Cc1cccc(Cn2c(CNC(=O)c3ccccc3)nc3ccccc32)c1	inactive
CCc1ccc(NC(=O)C(=O)NCCc2csc(-c3ccc(C(F)(F)F)cc3)n2)cc1	inactive
COc1ccccc1Cn1ccn(CC(=O)Nc2c(C)cc(C)cc2C)c(=O)c1=O	active
COc1ccc2cc3cc(C(=O)N4CCN(c5cccc(C(F)(F)F)c5)CC4)sc3nc2c1	inactive
COc1ccc(CNC(=O)c2cn(-c3cccc(OC)c3)c(=O)c3ccccc23)cc1	inactive
COc1ccc(CNC(=O)c2cc3c(=O)n(C)c4ccccc4c3n2C)cc1	inactive
CCOc1ccc(CCNC(=O)c2cn(-c3ccc(OC)cc3)c(=O)c3ccccc23)cc1OCC	inactive
COc1ccc(NC(=O)Cn2ccn(-c3ccccc3)c(=O)c2=O)cc1	inactive
Cc1ccn2c(Nc3ccc4c(c3)OCCO4)c(-c3ccc(C)o3)nc2c1	active

Q. Call for entry CCCC(=O)NCCc1ccc(F)cc1 :
A. inactive

Q. Please state the recorded outcome for this molecule: CC(C)c1ccc(Cn2c(COc3ccccc3)nc3ccccc32)cc1
A. active

Q. What did the test return for CCOc1ccc(C(=O)NCc2ccc3c(c2)CCN3C(=O)c2ccccc2)cc1 ?
A. active

====

# Tested on: DeltatarO mutant
# Experiment Description: S. aureus survival, RN4220 and DeltatarO strains – OD600, teichoic acid synthesis inhibitors, primary screen (AID 463173)
# Applied Conditions: S. aureus RN4220 wild type/DeltatarO growth, OD600, 18 h, active compounds read low, screened at 18.75 µg/mL (by protocol)
Out of some 52,000 compounds screened, about 4,300 (8.3%) were called active. The sample holds actives, similar compounds and a random draw of the others, so the mix is not that of the screen.
Parameter survival: see the listing below.
# value in %; strip the unit string

Please review the entries below; each comes with its answer.
Chemical Structure	survival, %
Cc1ccc(NC(=O)c2nc(S(C)(=O)=O)ncc2N(Cc2ccco2)Cc2ccco2)cc1C	50
CCCn1cc(S(=O)(=O)c2ccc(C)c(C)c2)c(=O)c2cc(F)c(N3CCC(C)CC3)cc21	67

Q. Could you tell me which survival is on file for COc1ccc(CNC(=O)c2ccc3nc(CCc4ccccc4)oc3c2)cc1OC ?
A. 79

Q. Look up survival: Cc1ccc(NC(=O)c2nc(S(C)(=O)=O)ncc2N(Cc2cccc(F)c2)Cc2ccco2)cc1C
A. 45

====

# Tested on: DeltatarO mutant
# Experiment Description: S. aureus survival, RN4220 and DeltatarO strains – OD600, teichoic acid synthesis inhibitors, primary screen (AID 463173)
# Applied Conditions: S. aureus RN4220 wild type/DeltatarO growth, OD600, 18 h, screened at 18.75 µg/mL (by protocol)
Out of some 52,000 compounds screened, about 4,300 (8.3%) were called active. Cut-off read from the data, not from the text of the source: active = survival mostly below about 52% (no sharp cut-off); inactive = mostly above about 56%. This is one part of a sample in which actives are shown more often than they occur.
// classify into active, inactive

Recorded results for 2 compounds are shown here.
Compound	Class
CCCCNC(=O)c1cnc2c(-c3ccc(OCC)c(OCC)c3)c(C)nn2c1-c1ccccc1	inactive
Cc1nn2c(C)c(C(=O)NCC(C)c3ccccc3)cnc2c1-c1ccccc1 (stereo not drawn)	inactive

Could you now consider this next compound?
Q. Outcome logged for CCOc1ccc(-c2c(C)nn3c(C)c(C(=O)Nc4ccccc4C(=O)OC)cnc23)cc1OCC in this assay:
A. active

====

# Test system: DeltatarO mutant
# Experiment Description: S. aureus survival, RN4220 and DeltatarO strains – OD600, teichoic acid synthesis inhibitors, primary screen (AID 463173)
# Applied Conditions: S. aureus RN4220 wild type/DeltatarO growth, OD600, 18 h, active compounds read low, screened at 18.75 µg/mL (by protocol)
The whole screen tested about 52,000 compounds, of which about 4,300 (8.3%) were called active. The entries come from a sample that favours actives as a whole.
Test Readout: survival (%)
Field: numeric (%). Do not append units.

Example compounds with recorded survival:
Compound	Test Readout	Recorded Number
COc1ccc(CNC(=O)c2ccc3c(c2)N(Cc2ccccc2)C(=O)c2ccccc2S3(=O)=O)cc1	survival	83
COc1ccccc1N1CCN(C(=O)c2oc3ccccc3c2NC(=O)C(C)Oc2ccccc2)CC1 (stereo unspecified)	survival	69
O=C(COCc1cc(-c2cccs2)on1)N1CCN(c2ccccc2)CC1	survival	72

Q. Bench note: what survival did O=C(COCc1cc(-c2cccs2)on1)N1CCN(c2cccc(Cl)c2)CC1 show?
A. 37

Q. Given the entry Cc1cc(NS(=O)(=O)c2ccc(NC(=O)COc3cc(C)c(Br)cc3C(C)C)cc2)no1 , report its measured survival.
A. 13

Q. Query: survival; subject: O=C(NCCCN1CCN(c2ccccc2)CC1)c1cc2c(s1)-c1ccccc1OC2
A. 53

Q. Query (compound): Cc1cccc2c1-c1sc(C(=O)NCCCN3CCN(c4ccccc4F)CC3)cc1CO2 ; field requested: survival
A. 63

Q. Requested field: survival. Item: O=C(COCc1cc(-c2ccco2)on1)Nc1cccc(O)c1
A. 78

Q. I have this compound here, CCN1CCN(CCCNC(=O)c2cc3c(s2)-c2ccccc2OC3)CC1 , and I need its recorded survival.
A. 88
